Where do these numbers come from? They come from patent US20180251563A1.

biological target: T1, DR5-Fc (UniProt O14763 56-182, limits assumed); assay: phage ELISA, target-Fc against non-specific control
T1 construct: purified recombinant target-Fc protein; not shown: Fc
T1 sequence (O14763 56-182 limits assumed): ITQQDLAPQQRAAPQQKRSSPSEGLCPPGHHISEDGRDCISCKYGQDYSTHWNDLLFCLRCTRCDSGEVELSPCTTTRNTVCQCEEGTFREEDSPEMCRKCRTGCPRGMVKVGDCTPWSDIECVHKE
attribute.measured: ELISA ratio (target to background) (ratio)
Express it in ratio; write the number only.

Consider the binder shown here: SEQ ID NO 34 (designed binder) MGSWWLFKDHLAEIKTALEALGGSEAELAHFEMAIAAFEKQLQYYKGKGNPEVEALRKEAAAIRDELQAYRHN What is its recorded ELISA ratio (target to background)? 9.75

Consider the binder shown here: SEQ ID NO 26 (designed binder) MGSWNYFKDHLAWIKNSLEALGGSEAELAHFETAIASFERQLQEYKGKGNPEVEALRKEAAAIRDELQAYRHN What is its recorded ELISA ratio (target to background)? 13

Consider the binder shown here: SEQ ID NO 27 (designed binder) MGSWLYFKEHLAHIKAWLEALGGSEAELAHFELAIADFEYHLQEYKGKGNPEVEALRKEAAAIRDELQAYRHN What is its recorded ELISA ratio (target to background)? 12.3
